# Tested Target: H3 hemagglutinin (A/Wisconsin/67/2005) (influenza A virus A/Wisconsin/67/2005 (H3N2))
# Experiment Notes: ELISA on coated HA, relative Kd (4-parameter fit)
pKd: −log10 of the molar value.
Reported pKd values are given for each entry in this list.
Endpoint Label: pKd

| Binder | Endpoint Label | Quantitative Readout |
| --- | --- | --- |
| Ab 038 (antibody, V domains shown) VH: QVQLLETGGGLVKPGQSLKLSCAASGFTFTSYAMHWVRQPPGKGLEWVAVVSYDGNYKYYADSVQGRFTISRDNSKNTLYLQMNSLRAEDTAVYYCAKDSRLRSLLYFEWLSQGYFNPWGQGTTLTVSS VL: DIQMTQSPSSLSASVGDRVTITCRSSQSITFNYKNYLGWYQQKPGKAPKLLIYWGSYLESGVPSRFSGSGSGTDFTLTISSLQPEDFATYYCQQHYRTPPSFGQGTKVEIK | pKd | 9.70 |
| Ab 005 (antibody, V domains shown) VH: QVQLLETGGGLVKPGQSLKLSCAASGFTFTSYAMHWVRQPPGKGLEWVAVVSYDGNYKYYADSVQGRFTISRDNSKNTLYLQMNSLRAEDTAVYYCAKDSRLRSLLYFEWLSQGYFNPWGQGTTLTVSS VL: DIVMTQSPDTVAVTVGERATINCKSSQTVTFNYKNYLAWYQQKPGQPPKLLIYWASTRESGVPDRFSGSGSGTDFTLTISSLQAEDVAVYYCQQHYRTPPSFGQGTKLDIK | pKd | 8.96 |
| Ab 032 (antibody, V domains shown) VH: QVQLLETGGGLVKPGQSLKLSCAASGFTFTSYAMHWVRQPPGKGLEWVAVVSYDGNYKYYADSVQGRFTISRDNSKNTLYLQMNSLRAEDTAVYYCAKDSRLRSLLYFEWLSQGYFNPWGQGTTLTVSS VL: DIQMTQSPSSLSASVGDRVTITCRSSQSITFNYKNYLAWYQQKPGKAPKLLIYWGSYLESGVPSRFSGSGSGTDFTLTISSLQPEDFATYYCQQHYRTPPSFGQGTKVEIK | pKd | 9.68 |
